Numbers sourced from PubChem BioAssay (NCI).

system: SF-268 CNS; assay: NCI tumour cell line growth inhibition, 48 h
Give TGI for every item shown.
Number in µM, nothing else.

Q. Specify the recorded TGI for `Cc1cc(N(CCC#N)CCC#N)ccc1/C(N=Nc1ccc(C(=O)O)cc1)=N\NC(=O)c1cc(Cl)ccc1O` , system: SF-268 CNS.
A. 42.3

Q. State TGI on SF-268 CNS. Entry: `COc1ccc2c(=O)cc(-c3ccncc3)oc2c1OC`
A. 91.7

====

Give measured TGI for each item. Keep answers brief.
tested on: HCT-15 colon; assay: NCI tumour cell line growth inhibition, 48 h

Q. Please give measured TGI of the following entry: `NCCSC(c1ccccc1)c1ccccc1`
A. > 100 µM

Q. Entry `CN[C@H](C#Cc1c(F)ccc2c1/C(=C/c1[nH]ccc1OC)C(=O)N2)CO` needs its TGI filled in; supply it.
A. 3.02 µM

Q. In one line, give reported TGI of the entry Cc1ccc(N(C(=O)Nc2ccccc2)C2=NCC(C)S2)cc1C (centres undefined) .
A. 44.5 µM

Q. Note down TGI recorded for C=CCNC(=O)N(CCCC(NC(C)=O)C(=O)NCc1ccccc1)Cc1ccccc1 (centres undefined)
A. > 100 µM

Q. Give the reported TGI for this molecule. O=C1Nc2nc3ccccc3n2N=C2CCCC12 (centres undefined)
A. > 100 µM

Q. Supply TGI value. Item: `COc1ccc2c(c1)[nH]c1c(/C=C/c3ccccc3)nccc12`
A. 34.7 µM

Q. Consider the molecule `CCOC(=O)C1=NN(c2ccc(C)cc2)C2=CC(C)=NN(C)C(=S)N21` and give its recorded TGI.
A. > 100 µM

Q. Look up TGI of Cc1nn(C(=O)c2ccc(Cl)cc2)c2c1C(c1ccccc1[N+](=O)[O-])SC(N)=N2 (centres undefined) and report it.
A. > 10 µM

Q. Answer with the recorded TGI of `Cc1ccc(-c2nc(C#N)c(S(=O)(=O)n3nc(C)cc3N)o2)cc1` only.
A. 3.72 µM

Q. Give the measured TGI for `c1ccc(C(c2ccccc2)c2cccnc2)cc1`
A. > 100 µM

Q. In one line, give reported TGI of the entry `CNc1ccc2c(c1)[C@@]1(C)c3ccccc3[C@@H](C2)N1C` .
A. 53 µM

Q. Fill in reported TGI for this entry: CN(C)CC(CC1=C(CC(CN(C)C)N(C)C)CCC1)N(C)C (centres undefined)
A. > 100 µM

Q. Output TGI of O=C1c2ccccc2OP(=O)(OCC(F)(F)F)OC1(C(F)(F)F)C(F)(F)F (centres undefined)
A. > 100 µM

Q. Using known records, supply TGI for COc1cc2oc3cc(=O)cc4oc(-c5ccccc5)cc(c2c2c1CCC(c1ccccc1)O2)c43 (centres undefined)
A. 91.9 µM

Q. Look up TGI of `CCN(CC)/C(Sc1ccccc1)=C(\C(Cl)=C(Cl)Cl)[N+](=O)[O-]` and report it.
A. 34.8 µM

Q. Annotate the molecule O=S(Nc1ccccc1)c1cccc(Cl)c1 (centres undefined) with its measured TGI.
A. > 100 µM

Q. Identify TGI associated with the molecule `COc1ccc(-c2nc(/C=N/Nc3cc(C)nc4ccc(Cl)cc34)c(C)o2)cc1`
A. 3.06 µM

Q. Given `COc1cc2ccccc2oc1=O` , respond with its TGI.
A. > 100 µM

Q. Look up and report measured TGI for this entry: `Cc1cc(NCCN(C(C)C)C(C)C)nc(/N=C(\N)Nc2ccc(Cl)c(C(F)(F)F)c2)n1`
A. 0.913 µM

Q. For the molecule `CN1CNc2nc(N)n(C)c(=O)c2C1` , report TGI.
A. > 10 µM

Q. Retrieve TGI measured for `Cc1ccccc1C(=O)N/N=C/c1ccc(Sc2nccn2C)c([N+](=O)[O-])c1` and print it.
A. > 100 µM

Q. Find the measured TGI of `CC1(N)CCN(c2cccnc2NC(=O)c2nc(-c3ncccc3C(F)(F)F)cnc2N)CC1` and report it.
A. > 100 µM

Q. Determine its reported TGI: `C[C@]12CCc3sc(NCCc4ccccc4)nc3C1=CC[C@@H]1[C@@H]2CC[C@]2(C)C(=O)CC[C@@H]12`
A. 4.49 µM

Q. Note TGI for the molecule shown: `CCOC(=O)/C=C/n1c2ccccc2c(=O)c2ccccc21`
A. > 100 µM

Q. Let me know recorded TGI for `N#Cc1c(-c2ccc([N+](=O)[O-])cc2)c(C#N)c(=O)n(NS(=O)(=O)c2ccccc2)c1-c1ccccc1` , thanks.
A. > 100 µM

Q. Note down TGI recorded for `O=C(Nc1cccc(-n2cc(-c3ccncc3)c(-c3ccc(Cl)c(O)c3)n2)c1)c1ccc(N2CCOCC2)c(C(F)(F)F)c1`
A. 25.3 µM

Q. Answer with reported TGI of `CC(=O)NNc1nc(C)c(C(=O)/C=C/c2ccccc2Cl)s1`
A. > 100 µM

Q. Specify reported TGI for the molecule shown: COc1ccc2c3c1O[C@H]1C(OC)C=CC4C(C2)N(Cc2cccs2)CCC341 (some centres undefined)
A. > 100 µM

Q. Identify the reported TGI for the following entry. C/C=C\C(CC(=O)NCCC1CN(S(=O)(=O)c2ccc(C)cc2)c2ccccc21)CC(=O)OC (centres undefined)
A. > 100 µM
